Let's look at some molecules and their measured refractive index.
- Protocol description: refractive index (Na D-line) (dimensionless)
- Condition: 318.2 K; 101.33 kPa; Liquid; Standard Abbe refractometry
Give only the figure.

Examples with their reported refractive index follow.
{"columns": ["Molecule", "refractive index"],
 "data": [
  ["CCCCn1cc[n+](C)c1.F[B-](F)(F)F [1-butyl-3-methylimidazolium tetrafluoroborate]", 1.4142],
  ["O [water]", 1.3299],
  ["CCn1cc[n+](C)c1.F[B-](F)(F)F [1-ethyl-3-methylimidazolium tetrafluoroborate]", 1.4065]
]}

What does the record list as refractive index for Cn1cc[n+](C)c1.F[B-](F)(F)F [1,3-dimethyl-1H-imidazolium tetrafluoroborate] ?
1.3993

====

- Protocol description: refractive index (Na D-line) (dimensionless)
- Condition: 328.2 K; 101.33 kPa; Liquid; Standard Abbe refractometry
± gives the expanded uncertainty stated by the source.
Let's look at some molecules and their measured refractive index.

Examples with their reported refractive index follow.
{"columns": ["Molecule", "Quantity name", "Reported"],
 "data": [
  ["Cn1cc[n+](C)c1.F[B-](F)(F)F [1,3-dimethyl-1H-imidazolium tetrafluoroborate]", "refractive index", "1.3988 ± 0.0004"],
  ["O [water]", "refractive index", "1.3282 ± 0.0005"],
  ["CCCCn1cc[n+](C)c1.F[B-](F)(F)F [1-butyl-3-methylimidazolium tetrafluoroborate]", "refractive index", "1.4125 ± 0.0004"]
]}

Now consider a different molecule.
What does the record list as refractive index for CCn1cc[n+](C)c1.F[B-](F)(F)F [1-ethyl-3-methylimidazolium tetrafluoroborate] ?
1.4053 ± 0.0004

====

- Condition: 338.2 K; 101.33 kPa; Liquid; Cone and plate viscometry
± gives the expanded uncertainty stated by the source.
Quantity name: viscosity
# include the unit after the value

Examples with their reported viscosity follow.
{"columns": ["Compound", "viscosity"],
 "data": [
  ["CCCCn1cc[n+](C)c1.F[B-](F)(F)F [1-butyl-3-methylimidazolium tetrafluoroborate]", "21 ± 1 mPa·s"],
  ["Cn1cc[n+](C)c1.F[B-](F)(F)F [1,3-dimethyl-1H-imidazolium tetrafluoroborate]", "7.8 ± 1 mPa·s"],
  ["O", "0.43 mPa·s"]
]}

Now consider a different compound.
What does the record list as viscosity for CCn1cc[n+](C)c1.F[B-](F)(F)F [1-ethyl-3-methylimidazolium tetrafluoroborate] ?
11 ± 1 mPa·s

====

- Condition: 298.2 K; 101.33 kPa; Liquid; Cone and plate viscometry
Quantity name: viscosity (mPa·s)
Value expressed in mPa·s; do not type the unit.

Examples with their reported viscosity follow.
{"columns": ["Compound", "viscosity / mPa·s"],
 "data": [
  ["O [water]", 0.9],
  ["CCCCn1cc[n+](C)c1.F[B-](F)(F)F [1-butyl-3-methylimidazolium tetrafluoroborate]", 146]
]}

What does the record list as viscosity for CCn1cc[n+](C)c1.F[B-](F)(F)F [1-ethyl-3-methylimidazolium tetrafluoroborate] ?
45

What does the record list as viscosity for Cn1cc[n+](C)c1.F[B-](F)(F)F [1,3-dimethyl-1H-imidazolium tetrafluoroborate] ?
34

====

- Protocol description: refractive index (Na D-line) (dimensionless)
- Condition: 298.2 K; 101.33 kPa; Liquid; Standard Abbe refractometry
Quantity name: refractive index
Give only the figure.

Examples with their reported refractive index follow.
{"columns": ["Compound", "refractive index"],
 "data": [
  ["O", 1.3325],
  ["CCn1cc[n+](C)c1.F[B-](F)(F)F [1-ethyl-3-methylimidazolium tetrafluoroborate]", 1.4098],
  ["Cn1cc[n+](C)c1.F[B-](F)(F)F [1,3-dimethyl-1H-imidazolium tetrafluoroborate]", 1.4023]
]}

What does the record list as refractive index for CCCCn1cc[n+](C)c1.F[B-](F)(F)F [1-butyl-3-methylimidazolium tetrafluoroborate] ?
1.4184

====

- Protocol description: refractive index (Na D-line) (dimensionless)
- Condition: 338.2 K; 101.33 kPa; Liquid; Standard Abbe refractometry
± gives the expanded uncertainty stated by the source.
Let's look at some compounds and their measured refractive index.

{"columns": ["Compound", "refractive index"],
 "data": [
  ["CCCCn1cc[n+](C)c1.F[B-](F)(F)F [1-butyl-3-methylimidazolium tetrafluoroborate]", "1.4106 ± 0.0004"],
  ["O [water]", "1.3275 ± 0.0005"],
  ["Cn1cc[n+](C)c1.F[B-](F)(F)F [1,3-dimethyl-1H-imidazolium tetrafluoroborate]", "1.3975 ± 0.0004"]
]}

Now consider a different compound.
What does the record list as refractive index for CCn1cc[n+](C)c1.F[B-](F)(F)F [1-ethyl-3-methylimidazolium tetrafluoroborate] ?
1.4035 ± 0.0004

====

- Condition: 318.2 K; 101.33 kPa; Liquid; Cone and plate viscometry
Quantity name: viscosity (mPa·s)
Value expressed in mPa·s; do not type the unit.

Examples with their reported viscosity follow.
{"columns": ["Compound", "viscosity / mPa·s"],
 "data": [
  ["CCn1cc[n+](C)c1.F[B-](F)(F)F [1-ethyl-3-methylimidazolium tetrafluoroborate]", 19],
  ["O", 0.61],
  ["CCCCn1cc[n+](C)c1.F[B-](F)(F)F [1-butyl-3-methylimidazolium tetrafluoroborate]", 45]
]}

Now consider a different compound.
What does the record list as viscosity for Cn1cc[n+](C)c1.F[B-](F)(F)F [1,3-dimethyl-1H-imidazolium tetrafluoroborate] ?
15

====

- Condition: 328.2 K; 101.33 kPa; Liquid; Cone and plate viscometry
± gives the expanded uncertainty stated by the source.
Quantity name: viscosity
# include the unit after the value

Examples with their reported viscosity follow.
{"columns": ["Molecule", "Quantity name", "Reported"],
 "data": [
  ["O", "viscosity", "0.5 mPa·s"],
  ["CCn1cc[n+](C)c1.F[B-](F)(F)F [1-ethyl-3-methylimidazolium tetrafluoroborate]", "viscosity", "14 ± 1 mPa·s"],
  ["CCCCn1cc[n+](C)c1.F[B-](F)(F)F [1-butyl-3-methylimidazolium tetrafluoroborate]", "viscosity", "29 ± 1 mPa·s"]
]}

What does the record list as viscosity for Cn1cc[n+](C)c1.F[B-](F)(F)F [1,3-dimethyl-1H-imidazolium tetrafluoroborate] ?
11 ± 1 mPa·s

====

Let's look at some compounds and their measured viscosity.
- Condition: 308.2 K; 101.33 kPa; Liquid; Cone and plate viscometry
Value expressed in mPa·s; do not type the unit.

Examples with their reported viscosity follow.
{"columns": ["Compound", "viscosity (mPa·s)"],
 "data": [
  ["O", 0.72],
  ["CCn1cc[n+](C)c1.F[B-](F)(F)F [1-ethyl-3-methylimidazolium tetrafluoroborate]", 27],
  ["CCCCn1cc[n+](C)c1.F[B-](F)(F)F [1-butyl-3-methylimidazolium tetrafluoroborate]", 76]
]}

Now consider a different compound.
What does the record list as viscosity for Cn1cc[n+](C)c1.F[B-](F)(F)F [1,3-dimethyl-1H-imidazolium tetrafluoroborate] ?
22

The origin of these recorded values is the NIST ThermoML archive (doi:10.1016/j.fluid.2014.01.003).
